- Tested on: T-cell factor (TCF)-luciferase reporter using Wnt pathway as index
- ASSAY_NOTES: Inhibitory activity against TCF-luciferase reporter using Wnt pathway as index (DLD-1/TCF-Luc cells)
- Format: cell-based, human
- MEASUREMENT_CONTEXT: 1 μmol/L; DLD-1/TCF-Luc cells; luciferase activity after 18 hours
MEASUREMENT_LABEL: Inhibition ratio (%) at 1 μmol/L
Give the quantity in %, number only.

Per the reported T-cell factor (TCF)-luciferase reporter using Wnt pathway as index data, "N#Cc1cc(N2C(=O)N(CC3CCN(c4ncnc5cnc(C(N)=O)cc45)CC3)Cc3ccccc32)ccc1F" has Inhibition ratio (%) at 1 μmol/L of 86

Per the reported T-cell factor (TCF)-luciferase reporter using Wnt pathway as index data, "CNC(=O)c1ccc2c(N3CCC(CN4Cc5ccccc5N(c5cccc(C#N)c5)C4=O)CC3)ncnc2c1" has Inhibition ratio (%) at 1 μmol/L of 77

----------
- TARGET_UNDER_TEST: tankyrase-2 (Homo sapiens, UniProt Q9H2K2)
- Construct: purchased BPS Bioscience, Inc. 80566
- ASSAY_NOTES: Tankyrase-2 enzyme inhibition test (Tankyrase-2 Chemiluminescent Assay Kit)
- Assay type: biochemical
- MEASUREMENT_CONTEXT: autoribosylation of GST-tankyrase-2 fusion protein, chemiluminescence
MEASUREMENT_LABEL: Inhibition ratio (%) at 1 μmol/L
Give the quantity in %, number only.

Some entries whose results are on file:
CC(=O)N1CCc2ncnc(N3CCC(CN4Cc5ccccc5N(c5ccc(F)c(C#N)c5)C4=O)CC3)c2C1 93
COc1cc2ncnc(N3CCC(CN4Cc5ccccc5N(c5cccc(S(N)(=O)=O)c5)C4=O)CC3)c2cc1OC 89
COc1ccc2c(c1)CN(CC1CCN(c3nccc4nc[nH]c(=O)c34)CC1)C(=O)N2c1ccnc(C(N)=O)c1 93

Now consider a different compound.
The recorded Inhibition ratio (%) at 1 μmol/L for "COc1cc2ncnc(N3CCC(CN4Cc5cccnc5N(c5ccnc(C#N)c5)C4=O)CC3)c2cc1OC" is 98

----------
- TARGET_UNDER_TEST: tankyrase-2 (Homo sapiens)
- Construct: purchased BPS Bioscience, Inc. 80566
- Sequence (Q9H2K2 1-1166): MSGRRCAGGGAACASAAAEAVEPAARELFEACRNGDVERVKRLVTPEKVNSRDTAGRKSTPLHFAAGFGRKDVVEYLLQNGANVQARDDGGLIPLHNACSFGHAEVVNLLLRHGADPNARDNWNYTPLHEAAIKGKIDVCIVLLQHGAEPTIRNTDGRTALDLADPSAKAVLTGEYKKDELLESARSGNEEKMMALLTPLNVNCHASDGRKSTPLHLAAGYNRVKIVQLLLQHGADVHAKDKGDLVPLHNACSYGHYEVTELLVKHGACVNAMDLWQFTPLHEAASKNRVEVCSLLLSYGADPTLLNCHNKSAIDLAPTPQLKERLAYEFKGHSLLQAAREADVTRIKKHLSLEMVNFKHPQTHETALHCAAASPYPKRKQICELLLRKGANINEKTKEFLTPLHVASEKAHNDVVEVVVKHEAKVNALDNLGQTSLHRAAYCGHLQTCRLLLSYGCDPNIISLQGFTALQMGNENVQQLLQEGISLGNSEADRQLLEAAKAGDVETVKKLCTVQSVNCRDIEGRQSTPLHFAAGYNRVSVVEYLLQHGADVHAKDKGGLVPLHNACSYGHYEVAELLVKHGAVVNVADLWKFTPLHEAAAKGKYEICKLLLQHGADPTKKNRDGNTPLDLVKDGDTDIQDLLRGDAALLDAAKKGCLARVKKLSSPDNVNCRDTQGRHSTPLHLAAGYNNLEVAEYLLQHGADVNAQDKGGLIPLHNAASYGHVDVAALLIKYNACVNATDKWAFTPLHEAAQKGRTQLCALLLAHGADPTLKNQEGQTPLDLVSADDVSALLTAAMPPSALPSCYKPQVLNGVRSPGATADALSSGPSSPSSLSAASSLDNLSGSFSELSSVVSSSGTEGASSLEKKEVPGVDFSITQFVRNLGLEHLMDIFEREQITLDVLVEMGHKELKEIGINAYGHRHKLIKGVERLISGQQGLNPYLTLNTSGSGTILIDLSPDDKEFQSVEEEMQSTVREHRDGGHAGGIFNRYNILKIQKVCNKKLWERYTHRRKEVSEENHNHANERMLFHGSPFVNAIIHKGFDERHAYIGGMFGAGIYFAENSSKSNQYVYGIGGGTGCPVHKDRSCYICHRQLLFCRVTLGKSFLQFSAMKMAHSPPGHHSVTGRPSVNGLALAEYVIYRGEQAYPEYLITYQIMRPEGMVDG
- ASSAY_NOTES: Tankyrase-2 enzyme inhibition test (Tankyrase-2 Chemiluminescent Assay Kit)
- Type: biochemical
- MEASUREMENT_CONTEXT: autoribosylation of GST-tankyrase-2 fusion protein, chemiluminescence
MEASUREMENT_LABEL: Inhibition ratio (%) at 1 μmol/L
Give the quantity in %, number only.

COMPOUND	Inhibition ratio (%) at 1 μmol/L
N#Cc1cc(N2C(=O)N(CC3CCN(c4ncnc5[nH]c(=O)[nH]c45)CC3)Cc3ccccc32)ccn1	88
COc1cc2ncnc(N3CCC(O)(CN4Cc5ccccc5N(c5ccnc(C#N)c5)C4=O)CC3)c2cc1OC	79
COc1cc2ncnc(N3CCC(CN4Cc5ccccc5N(c5ccnc(C#N)c5)C4=O)CC3)c2cc1OC	91

The recorded Inhibition ratio (%) at 1 μmol/L for "N#Cc1cc(N2C(=O)N(CC3CCN(c4ncnc5cc(N6CCOCC6)ccc45)CC3)Cc3ccccc32)ccn1" is 87

The recorded Inhibition ratio (%) at 1 μmol/L for "COc1cc2ncnc(N3CCC(CN4Cc5ccccc5N(c5cccc([N+](=O)[O-])c5)C4=O)CC3)c2cc1OC" is 90

The recorded Inhibition ratio (%) at 1 μmol/L for COc1cc2ncnc(N3CCC(CN4Cc5ccccc5N(CC5CCCO5)C4=O)CC3)c2cc1OC (stereo not shown) is 91

The recorded Inhibition ratio (%) at 1 μmol/L for "N#Cc1cc(N2C(=O)N(CC3CCN(c4nccn5ccnc45)CC3)Cc3ccccc32)ccn1" is 92

----------
- TARGET_UNDER_TEST: tankyrase-2 (Homo sapiens, UniProt Q9H2K2)
- Construct: purchased BPS Bioscience, Inc. 80566
- Sequence (Q9H2K2 1-1166): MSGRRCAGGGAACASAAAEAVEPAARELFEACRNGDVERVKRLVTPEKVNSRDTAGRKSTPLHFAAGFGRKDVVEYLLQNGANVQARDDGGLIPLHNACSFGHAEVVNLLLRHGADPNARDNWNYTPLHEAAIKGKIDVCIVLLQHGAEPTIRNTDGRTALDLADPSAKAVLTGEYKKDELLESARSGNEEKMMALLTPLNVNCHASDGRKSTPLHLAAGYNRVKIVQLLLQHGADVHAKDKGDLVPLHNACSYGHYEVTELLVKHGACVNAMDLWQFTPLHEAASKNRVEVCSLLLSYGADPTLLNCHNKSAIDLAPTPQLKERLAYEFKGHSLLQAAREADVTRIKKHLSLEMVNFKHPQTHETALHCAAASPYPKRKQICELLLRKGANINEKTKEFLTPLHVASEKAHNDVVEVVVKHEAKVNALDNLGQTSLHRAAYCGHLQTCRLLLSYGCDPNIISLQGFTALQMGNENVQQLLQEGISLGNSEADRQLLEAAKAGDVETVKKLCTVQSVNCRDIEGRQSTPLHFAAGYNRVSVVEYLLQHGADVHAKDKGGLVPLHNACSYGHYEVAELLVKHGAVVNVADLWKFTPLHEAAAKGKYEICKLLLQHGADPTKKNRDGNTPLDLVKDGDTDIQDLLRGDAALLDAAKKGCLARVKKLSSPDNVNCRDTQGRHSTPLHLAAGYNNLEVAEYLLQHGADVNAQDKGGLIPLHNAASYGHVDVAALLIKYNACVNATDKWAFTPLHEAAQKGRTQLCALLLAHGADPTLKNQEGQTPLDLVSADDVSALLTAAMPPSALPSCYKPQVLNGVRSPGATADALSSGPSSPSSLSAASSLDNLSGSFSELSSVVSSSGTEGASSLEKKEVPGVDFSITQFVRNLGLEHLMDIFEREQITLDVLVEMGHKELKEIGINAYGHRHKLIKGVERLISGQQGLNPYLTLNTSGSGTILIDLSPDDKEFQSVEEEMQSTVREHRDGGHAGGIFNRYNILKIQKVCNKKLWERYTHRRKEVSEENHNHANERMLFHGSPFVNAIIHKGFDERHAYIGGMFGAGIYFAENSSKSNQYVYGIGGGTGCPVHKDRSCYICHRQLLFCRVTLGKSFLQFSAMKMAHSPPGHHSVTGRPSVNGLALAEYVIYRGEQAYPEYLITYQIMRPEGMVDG
- ASSAY_NOTES: Tankyrase-2 enzyme inhibition test (Tankyrase-2 Chemiluminescent Assay Kit)
- Type: biochemical
- MEASUREMENT_CONTEXT: autoribosylation of GST-tankyrase-2 fusion protein, chemiluminescence
# maps each entry to its Inhibition ratio (%) at 1 μmol/L
# answer = value followed by unit

Some entries whose results are on file:
MOLECULE	TARGET_UNDER_TEST	Inhibition ratio (%) at 1 μmol/L
N#Cc1cc(N2C(=O)N(CC3CCN(c4c(C(N)=O)ccnc4F)CC3)Cc3ccccc32)ccn1 [Compound 40]	tankyrase-2 (Homo sapiens, UniProt Q9H2K2)	93%
COc1cc2ncnc(N3CCC(CN4Cc5ccccc5N(c5ccc(F)c(C#N)c5)C4=O)CC3)c2cc1OC [Compound 7]	tankyrase-2 (Homo sapiens, UniProt Q9H2K2)	95%
COc1cc2ncnc(N3CCC(CN4Cc5cc(S(C)(=O)=O)ccc5N(Cc5ccccc5C#N)C4=O)CC3)c2cc1OC [Compound 5]	tankyrase-2 (Homo sapiens, UniProt Q9H2K2)	94%

The recorded Inhibition ratio (%) at 1 μmol/L for N#Cc1cccc(N2C(=O)N(CC3CCN(c4ncnc5c[n+]([O-])ccc45)CC3)Cc3ccccc32)c1 [Compound 29] is 87%
